target-desc: Cytochrome P450 1A2 (Homo sapiens) (UniProt P05177)
Sequence (P05177 whole entry, looked up): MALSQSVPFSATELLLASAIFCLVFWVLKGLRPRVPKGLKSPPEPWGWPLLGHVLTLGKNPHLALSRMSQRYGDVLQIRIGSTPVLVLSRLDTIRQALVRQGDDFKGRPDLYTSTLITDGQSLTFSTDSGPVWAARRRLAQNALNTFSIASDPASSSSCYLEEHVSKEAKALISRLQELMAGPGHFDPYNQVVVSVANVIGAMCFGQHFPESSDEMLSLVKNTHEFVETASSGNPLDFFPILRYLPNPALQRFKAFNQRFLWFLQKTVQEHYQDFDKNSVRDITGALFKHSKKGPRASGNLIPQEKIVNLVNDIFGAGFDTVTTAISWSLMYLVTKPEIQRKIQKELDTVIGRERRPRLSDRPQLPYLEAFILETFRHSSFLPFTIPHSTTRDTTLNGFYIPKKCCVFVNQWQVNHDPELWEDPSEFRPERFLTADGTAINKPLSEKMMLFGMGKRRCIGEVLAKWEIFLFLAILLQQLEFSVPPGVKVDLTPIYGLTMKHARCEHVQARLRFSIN
protocol-description: Cytochrome panel assay with activity outcomes; further: on the % scale 0 is the no-effect control and ±100 the full control effect
condition-notes: recombinant CYP, pro-luciferin dealkylation, luminescence, p450-cyp1a2; series mostly up to 57.1 µM
Among all 16,000 compounds or so, about 5,700 (36%) were called active. Roughly 24% stayed inconclusive and do not appear here. This is one part of the list.
observation-type: activity, negative = inhibition

## Input If you can, please state the reported activity, negative = inhibition value of `NNC(=O)[C@@H](O)[C@H](O)[C@H](O)CO` .
## Output -0.774% [at 11.4 µM] (inactive)

## Input # lookup: activity, negative = inhibition of `CC(C)=CCC/C(C)=C/CO/N=C1/C[C@@H](O)[C@@H](O)[C@@H]2[C@@H]3C(=O)N(C4CCCCC4)C(=O)[C@H]3CC[C@H]12`
## Output -2.85% [at 11.4 µM] (inactive)

## Input Look up activity, negative = inhibition for this compound: `Oc1c(Cl)cc(CN(Cc2cc(Cl)c(O)c(Cl)c2)C2CCCCC2)cc1Cl`
## Output 11.3% [at 2.29 µM] (inactive)

## Input Record request: activity, negative = inhibition value, item `CC(C)CO/N=C1/[C@H]2O[C@@H]2[C@@H](O)[C@H]2[C@H]1CCn1c(=O)n(C)c(=O)n12`
## Output 8.17% [at 11.4 µM] (inactive)

## Input I'd like to know its activity, negative = inhibition. The compound in question is `C/C(CCC(=O)OC[C@@H]1O[C@H](C#Cc2ccccc2)C=C[C@@H]1Oc1ccc(C)cc1)=N/OC[C@@H](O)[C@H]1O[C@H]2OC(C)(C)O[C@H]2[C@@H]1O`
## Output 2.38% [at 11.4 µM] (inactive)

## Input Give its activity, negative = inhibition value. Item: `[O-][N+]1(CC[N+]2([O-])CCCCC2)CCCCC1`
## Output -3.29% [at 11.4 µM] (inactive)

## Input Data request, read-out activity, negative = inhibition, for `O=C1Nc2ccccc2C1=Nc1ccc(S(=O)(=O)Nc2nccs2)cc1`
## Output -18.2% [at 11.4 µM] (inactive)

## Input Requested field: activity, negative = inhibition. Item: `CC(C)=CCC/C(C)=C/CO/N=C1/C[C@@H](O)[C@@H](O)[C@@H]2[C@@H]3C(=O)N(C[C@@H]4CCCO4)C(=O)[C@H]3CC[C@H]12`
## Output -0.0642% [at 11.4 µM] (inactive)

## Input What does the record list as activity, negative = inhibition for `C[C@@H]1O[C@@H](O)[C@@H](O)[C@H](O)[C@H]1O` ?
## Output -2.48% [at 11.4 µM] (inactive)

## Input # lookup: activity, negative = inhibition of `CC(C)=NOCc1cccc(-c2cc(-c3ccccc3)no2)c1`
## Output 1.37% [at 11.4 µM] (inactive)

## Input Requested field: activity, negative = inhibition. Item: `CC1(C)O[C@@H]2O[C@H]([C@@H]3COC(C)(C)O3)[C@H](N)[C@H]2O1`
## Output 8.69% [at 2.29 µM] (inactive)

## Input Recorded activity, negative = inhibition for `O=C(O)c1c(Br)c(Br)c(Br)c(Br)c1C1c2ccc(O)cc2Oc2cc(O)ccc21` , please?
## Output -6.83% [at 2.29 µM] (inactive)

## Input If you can, please state the reported activity, negative = inhibition value of `CC(=O)OC[C@@H]1O[C@@H](O/N=C2/C[C@@H](O)[C@@H](O)[C@@H]3[C@@H]4C(=O)N(C[C@@H]5CCCO5)C(=O)[C@H]4CC[C@H]23)[C@H](OC(C)=O)[C@H](OC(C)=O)[C@@H]1OC(C)=O` .
## Output -5.84% [at 11.4 µM] (inactive)

## Input Could you tell me which activity, negative = inhibition is on file for `C[C@H]1C[C@H]2[C@H]3CCC4=CC(=O)C=C[C@@]4(C)[C@]3(F)[C@H](O)C[C@]2(C)[C@@]1(O)C(=O)COP(=O)(O)O` ?
## Output 2.48% [at 11.4 µM] (inactive)

## Input For `CC[C@@]12CCCN3CCc4c(n(c5ccccc45)C(=O)C1)[C@H]32` , what is its reported activity, negative = inhibition?
## Output -9.85% [at 2.29 µM] (inactive)

## Input I am curious: what activity, negative = inhibition value has been reported for `C[C@H](CN(C)C)C(=O)c1ccccc1C(=O)O` ?
## Output -5.91% [at 11.4 µM] (inactive)

## Input Reported activity, negative = inhibition for `CC(=O)OC[C@@H]1O[C@H](C/C=N\O[C@@H](C)c2cn([C@H]3COC[C@H]3O)nn2)C=C[C@@H]1OC(C)=O` : what is it?
## Output -4.99% [at 11.4 µM] (inactive)
